biological target: Sentrin-specific protease 8 (Homo sapiens); assay type: functional;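 also: luminescence read-out of SENP8 inhibition, dose-response confirmation following an ultra-high-throughput screen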
Sequence (Q96LD8 whole entry): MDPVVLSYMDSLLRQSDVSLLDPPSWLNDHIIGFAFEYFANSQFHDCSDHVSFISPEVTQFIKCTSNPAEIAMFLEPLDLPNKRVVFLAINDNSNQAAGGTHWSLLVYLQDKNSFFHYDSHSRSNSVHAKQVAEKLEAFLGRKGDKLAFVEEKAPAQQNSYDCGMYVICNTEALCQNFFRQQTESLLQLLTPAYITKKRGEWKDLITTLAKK
Activity calls are given as the source filed them.
The reply should name one outcome from TRUE for active, FALSE for inactive

Reference set (3 entries):
{"columns": ["lineNotation", "groupLabel"],
 "data": [
  ["CC(C)C(=O)Nc1ccc2nn(-c3ccccc3)nc2c1", "FALSE"],
  ["Cc1ccccc1-c1nc2cc(Cl)ccc2o1", "TRUE"],
  ["CCCCNc1nc(N)nc(-c2cc(Cl)ccc2O)n1", "FALSE"]
]}

Field: next compound
Prompt: Status in this test for O=C1C2=[N+]([O-])[C@H]3CCCC[C@H]3[N+]([O-])=C2c2ccccc21 ?
Completion: TRUE

---

target: Sentrin-specific protease 7 (Homo sapiens); assay type: functional;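 also: Luminescence-based dose-response confirmation of ultra-high-throughput screening hits, measuring inhibition of SENP7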
Sequence (Q9BQF6 whole entry): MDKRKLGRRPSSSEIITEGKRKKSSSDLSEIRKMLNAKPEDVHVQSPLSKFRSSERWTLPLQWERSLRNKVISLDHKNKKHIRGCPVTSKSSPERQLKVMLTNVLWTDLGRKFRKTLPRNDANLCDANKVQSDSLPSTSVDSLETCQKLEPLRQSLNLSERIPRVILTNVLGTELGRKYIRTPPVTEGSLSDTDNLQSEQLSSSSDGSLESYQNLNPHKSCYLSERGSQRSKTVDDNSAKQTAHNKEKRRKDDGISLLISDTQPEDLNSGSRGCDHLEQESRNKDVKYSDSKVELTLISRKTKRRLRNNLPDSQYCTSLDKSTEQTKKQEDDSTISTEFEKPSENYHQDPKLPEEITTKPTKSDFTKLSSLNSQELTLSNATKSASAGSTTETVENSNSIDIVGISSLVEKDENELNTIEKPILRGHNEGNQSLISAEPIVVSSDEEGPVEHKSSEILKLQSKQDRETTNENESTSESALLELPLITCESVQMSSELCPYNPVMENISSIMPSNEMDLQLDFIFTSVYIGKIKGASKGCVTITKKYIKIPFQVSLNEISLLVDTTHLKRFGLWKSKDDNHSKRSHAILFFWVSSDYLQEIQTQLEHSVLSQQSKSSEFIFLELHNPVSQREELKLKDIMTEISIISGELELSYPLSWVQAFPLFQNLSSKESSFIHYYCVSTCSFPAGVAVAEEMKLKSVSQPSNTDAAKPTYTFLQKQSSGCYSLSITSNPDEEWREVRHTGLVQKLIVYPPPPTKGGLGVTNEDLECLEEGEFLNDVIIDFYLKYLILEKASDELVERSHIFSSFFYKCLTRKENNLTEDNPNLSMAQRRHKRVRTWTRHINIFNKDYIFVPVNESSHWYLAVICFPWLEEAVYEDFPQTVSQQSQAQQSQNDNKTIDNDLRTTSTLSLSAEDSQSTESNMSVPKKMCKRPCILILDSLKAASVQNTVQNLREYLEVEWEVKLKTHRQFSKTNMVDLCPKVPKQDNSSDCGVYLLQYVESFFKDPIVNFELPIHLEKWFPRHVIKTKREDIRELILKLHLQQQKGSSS
Activity calls are given as the source filed them.
Task for the reader: assign each of the following compounds its reported IC50.

Known IC50 results, listed for orientation:
{"columns": ["lineNotation", "IC50"],
 "data": [
  ["Cc1ccccc1-c1nc2cc(Cl)ccc2o1", "4.69 µM (active)"],
  ["CCCCNc1nc(N)nc(-c2cc(Cl)ccc2O)n1", "4.54 µM (active)"],
  ["CC(C)C(=O)Nc1ccc2nn(-c3ccccc3)nc2c1", "8.73 µM (active)"]
]}

With those in mind, consider the next compound.
Prompt: Endpoint output: IC50 of O=C1C2=[N+]([O-])[C@H]3CCCC[C@H]3[N+]([O-])=C2c2ccccc21 . Value?
Completion: 16.8 µM (active)

---

assay: cells; assay type: functional, cell-based
Active and inactive are the calls of the source.
measurementType: IC50

Known IC50 results, listed for orientation:
{"columns": ["lineNotation", "measurementType", "result"],
 "data": [
  ["O=C(N[C@H](C(=O)N1CCC[C@H]1C(=O)NCCc1ccccc1Cl)C1CCCCC1)C1CC1", "IC50", "> 29.9 µM (inactive)"],
  ["COc1ccc(Nc2nc(N3CCCC3)c3ccccc3n2)cc1", "IC50", "19.7 µM (inactive)"],
  ["CSc1nc(-c2ccc(Cl)cc2)nn1S(=O)(=O)c1ccccc1", "IC50", "> 29.9 µM (inactive)"]
]}

With those in mind, consider the next molecule.
Prompt: Endpoint output: IC50 of COc1cc(CNCCc2ccccc2F)ccc1OCc1ccc(Cl)nc1 . Value?
Completion: 28.7 µM (inactive)

---

molecular target: Peroxisome proliferator-activated receptor gamma/Nuclear receptor coactivator 3 (Homo sapiens, UniProt P37231); type: functional;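 also: agonist potency for raising coactivator recruitment to the receptor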
Sequence (P37231 whole entry): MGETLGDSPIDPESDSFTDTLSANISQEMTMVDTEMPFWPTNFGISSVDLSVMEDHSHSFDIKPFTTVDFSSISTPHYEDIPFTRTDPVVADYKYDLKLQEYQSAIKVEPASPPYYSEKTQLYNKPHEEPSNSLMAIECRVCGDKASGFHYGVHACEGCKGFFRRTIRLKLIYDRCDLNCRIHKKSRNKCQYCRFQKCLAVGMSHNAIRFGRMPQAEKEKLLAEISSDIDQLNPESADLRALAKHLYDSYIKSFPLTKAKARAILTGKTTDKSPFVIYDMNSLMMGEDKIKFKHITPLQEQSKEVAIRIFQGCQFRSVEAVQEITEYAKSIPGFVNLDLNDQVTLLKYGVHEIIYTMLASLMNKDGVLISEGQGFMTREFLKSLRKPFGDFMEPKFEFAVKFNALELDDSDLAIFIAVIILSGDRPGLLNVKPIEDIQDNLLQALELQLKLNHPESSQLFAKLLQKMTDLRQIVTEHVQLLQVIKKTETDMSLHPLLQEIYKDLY
Sequence (Q9Y6Q9 whole entry, further chain): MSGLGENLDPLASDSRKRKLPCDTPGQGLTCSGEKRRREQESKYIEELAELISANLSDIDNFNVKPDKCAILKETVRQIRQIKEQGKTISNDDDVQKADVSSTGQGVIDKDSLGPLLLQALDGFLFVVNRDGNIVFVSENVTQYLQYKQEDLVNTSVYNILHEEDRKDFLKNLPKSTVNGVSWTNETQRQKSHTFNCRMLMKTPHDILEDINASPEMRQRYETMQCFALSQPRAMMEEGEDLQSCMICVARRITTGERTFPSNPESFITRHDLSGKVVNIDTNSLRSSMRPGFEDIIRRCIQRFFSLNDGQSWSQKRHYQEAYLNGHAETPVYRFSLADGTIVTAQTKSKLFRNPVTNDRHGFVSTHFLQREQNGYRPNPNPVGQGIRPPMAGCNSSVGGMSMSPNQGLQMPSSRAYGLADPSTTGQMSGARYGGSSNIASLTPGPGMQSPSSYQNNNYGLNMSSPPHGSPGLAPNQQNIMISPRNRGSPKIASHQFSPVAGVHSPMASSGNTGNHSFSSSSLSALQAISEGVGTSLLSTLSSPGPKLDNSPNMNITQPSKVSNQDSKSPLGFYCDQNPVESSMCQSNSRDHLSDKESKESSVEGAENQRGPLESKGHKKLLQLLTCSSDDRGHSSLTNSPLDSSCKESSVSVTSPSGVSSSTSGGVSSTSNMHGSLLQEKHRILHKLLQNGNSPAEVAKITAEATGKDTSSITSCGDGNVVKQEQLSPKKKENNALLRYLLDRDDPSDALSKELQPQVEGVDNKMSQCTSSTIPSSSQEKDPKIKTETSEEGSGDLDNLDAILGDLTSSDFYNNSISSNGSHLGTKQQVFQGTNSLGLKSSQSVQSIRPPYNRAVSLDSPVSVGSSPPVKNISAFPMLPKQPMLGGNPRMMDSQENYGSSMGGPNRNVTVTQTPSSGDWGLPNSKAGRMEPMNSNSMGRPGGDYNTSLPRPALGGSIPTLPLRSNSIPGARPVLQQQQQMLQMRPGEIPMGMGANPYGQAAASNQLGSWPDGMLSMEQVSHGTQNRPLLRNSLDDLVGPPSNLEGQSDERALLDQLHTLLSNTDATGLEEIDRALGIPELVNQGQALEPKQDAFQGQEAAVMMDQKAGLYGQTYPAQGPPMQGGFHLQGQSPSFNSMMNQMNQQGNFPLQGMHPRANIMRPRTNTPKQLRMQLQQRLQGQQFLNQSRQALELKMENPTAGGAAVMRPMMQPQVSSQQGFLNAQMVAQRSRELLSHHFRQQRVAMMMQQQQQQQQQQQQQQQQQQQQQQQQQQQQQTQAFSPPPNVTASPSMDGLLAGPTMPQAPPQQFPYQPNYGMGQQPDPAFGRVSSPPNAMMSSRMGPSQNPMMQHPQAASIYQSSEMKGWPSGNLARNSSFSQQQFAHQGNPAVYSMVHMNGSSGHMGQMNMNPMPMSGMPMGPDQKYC
Task for the reader: assign each of the following molecules its reported EC50.

{"columns": ["molecule", "result"],
 "data": [
  ["COc1ccc(C2(CNC(=O)/C=C\\c3ccco3)CCCC2)cc1OC", "> 79.4 µM (not active)"],
  ["Cc1ccccc1CC1(CO)CCCN(C(=O)CCC(=O)c2ccccc2)C1 (stereo not given)", "> 79.4 µM (not active)"],
  ["Cc1ccc(-n2c(C)cc(C(=O)COc3c(CO)cc(F)cc3CO)c2C)cc1C", "> 79.4 µM (not active)"],
  ["COc1cccc2sc(N3CCN(c4nc5ccccc5s4)CC3)nc12", "22.9 µM (not active)"]
]}

With those in mind, consider the next molecule.
Prompt: Endpoint output: EC50 of CCOC(=O)n1cc(-c2cnc(CNC(=O)C(C)(c3ccccc3)c3ccccc3)o2)c2ccccc21 . Value?
Completion: > 79.4 µM (not active)
